For each entry below, report its EC50 value.
- Tested on: human SK—OV-3 ovarian cancer cells
- measurement_protocol: Cellular Activity Assay (cytotoxicity, crystal violet)
- Type: cell-based
- condition_parameters: SK—OV-3 cells, treated 48 hr, 0.1-100 μM, crystal violet, read-out: EC50

Report EC50 for every entry below.
1. C=C(NC(=O)OC1CCN(C(=O)OC(C)(C)C)CC1)C(=O)NC(=C)C(=O)OC [Compound 4]
2. C=C(NC(=O)c1ccn(C2CCN(C(=O)OC(C)(C)C)CC2)n1)C(=O)NC(=C)C(=O)OC [Compound 6]
3. C=C(NC(=O)c1cn(C2CCN(C(=O)OC(C)(C)C)CC2)nn1)C(=O)NC(=C)C(=O)OC [Compound 5]
4. C=C(NC(=O)c1cnn(-c2ccccc2)c1)C(=O)NC(=C)C(=O)OC [Compound 2]

["> 100 µM", "25 to 100 µM", "1 to 10 µM", "10 to 25 µM"]
